Origin of the recorded values: the supplement of paper PMC9694430

System: LOC_OS04G41100-cb001
Sequence (as listed by the source): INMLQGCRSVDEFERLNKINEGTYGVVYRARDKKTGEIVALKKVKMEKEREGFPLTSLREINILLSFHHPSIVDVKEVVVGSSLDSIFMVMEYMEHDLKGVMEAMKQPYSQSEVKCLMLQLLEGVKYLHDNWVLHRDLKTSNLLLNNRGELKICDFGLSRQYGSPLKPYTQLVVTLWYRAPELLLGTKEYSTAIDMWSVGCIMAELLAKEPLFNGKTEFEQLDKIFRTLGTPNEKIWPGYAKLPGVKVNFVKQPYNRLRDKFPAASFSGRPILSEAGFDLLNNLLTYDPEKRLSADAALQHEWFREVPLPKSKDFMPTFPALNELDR
Assay: thermal shift delta Tm vs DMSO control; higher = stronger stabilization (binding);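 note: purified Escherichia coli-expressed rice kinase domain construct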
Conditions: 12.5 µM; protein concentration 2 µM
Record form. Attribute: thermal shift delta Tm. Fill in for each entry.
Give bare numbers, in °C.

As a guide, the following entries are already answered.
Query string: What value of measured thermal shift delta Tm is listed for Cn1cc(-c2cnn3c(N)c(Br)c([C@@H]4CCCNC4)nc23)cn1 ?
Result string: 0.97

Query string: What value of measured thermal shift delta Tm is listed for CCCS(=O)(=O)Nc1ccc(F)c(C(=O)c2c[nH]c3ncc(Cl)cc23)c1F ?
Result string: 0.83

Query string: What value of measured thermal shift delta Tm is listed for COc1cc2ncnc(Nc3cccc(Cl)c3)c2cc1OC ?
Result string: 0.04

Query string: What value of measured thermal shift delta Tm is listed for CCN(CC)CCCC(C)Nc1nc(C)cc(Nc2ccc3nc(C)cc(N)c3c2)n1 (stereo not given) ?
Result string: 0.23

Would you kindly look at the next entry?
Query string: What value of measured thermal shift delta Tm is listed for CC(C)(C)c1ccc(S(=O)(=O)/C=C/C#N)cc1 ?
Result string: -0.39

----------
Tested on: LOC_OS01G21960-cb002
Assay: thermal shift delta Tm vs DMSO control; higher = stronger stabilization (binding)
Conditions: 12.5 µM; protein concentration 2 µM
observable: thermal shift delta Tm
Number first, unit second: that is the form wanted.

As a guide, the following entries are already answered.
Query string: What value of measured thermal shift delta Tm is listed for CNC(=O)c1cc(Oc2ccc(NC(=O)Nc3cc(C(C)(C)C)nn3-c3ccc4ncccc4c3)c(F)c2)ccn1 ?
Result string: 1.31 °C

Query string: What value of measured thermal shift delta Tm is listed for C=CCc1ccc(O)c(-c2ccc(O)c(CC=C)c2)c1 ?
Result string: 1.38 °C

Query string: What value of measured thermal shift delta Tm is listed for CCS(=O)(=O)Nc1ccc2c(c1)/C(=C(/Nc1ccc(CN3CCCCC3)cc1)c1ccccc1)C(=O)N2 ?
Result string: 3.67 °C

Query string: What value of measured thermal shift delta Tm is listed for CNCc1ccc(-c2cc(-c3nc(-c4ccc(S(=O)(=O)C(C)C)cc4)cnc3N)on2)cc1 ?
Result string: 1.88 °C

Query string: What value of measured thermal shift delta Tm is listed for COc1cc2nccc(Oc3ccc(NC(=O)c4cn(C(C)C)c(=O)n(-c5ccc(F)cc5)c4=O)cc3F)c2cc1OC ?
Result string: 0.2 °C

Please supply thermal shift delta Tm for each of the following items, keeping them in order.
1. OC1CCC(Oc2cccc3cnc(Nc4ccc5nc[nH]c5c4)nc23)CC1 (stereo not drawn)
2. NC(=O)c1ccc2nc(-c3ccc(Oc4ccc(Cl)cc4)cc3)[nH]c2c1

Result string:
["4.16 °C", "0.75 °C"]

Query string: What value of measured thermal shift delta Tm is listed for COc1ccc(-c2cc3nccn3c(Nc3ncccc3C(N)=O)n2)cc1OC ?
Result string: 2.98 °C

----------
System: LOC_OS02G08530-cb003
Experiment: thermal shift delta Tm vs DMSO control; higher = stronger stabilization (binding)
Conditions: 12.5 µM; protein concentration 2 µM
observable: thermal shift delta Tm

As a guide, the following entries are already answered.
Query string: What value of measured thermal shift delta Tm is listed for COc1ccc(-c2cc3c(C)nc(N)nc3n([C@H]3CC[C@H](OCCO)CC3)c2=O)cn1 ?
Result string: 1.09 °C

Query string: What value of measured thermal shift delta Tm is listed for O=c1cc(N2CCOCC2)oc2c1ccc1ccccc12 ?
Result string: 0.22 °C

Query string: What value of measured thermal shift delta Tm is listed for C[C@H]1CNC(=O)c2cnn3ccc(nc23)N[C@H](C)c2cc(F)ccc2O1 ?
Result string: 2.82 °C

Query string: What value of measured thermal shift delta Tm is listed for O=C(NC(NC(=S)Nc1ccc(F)c([N+](=O)[O-])c1)C(Cl)(Cl)Cl)C(c1ccccc1)c1ccccc1 (stereo not drawn) ?
Result string: 2.71 °C

Query string: What value of measured thermal shift delta Tm is listed for O=C1NC(=O)/C(=C/c2cccc(C(F)(F)F)c2)S1 ?
Result string: 0.44 °C

Query string: What value of measured thermal shift delta Tm is listed for N#C/C(=C\c1ccc(O)c(O)c1)C(=O)NCc1ccccc1 ?
Result string: 0.84 °C

Query string: What value of measured thermal shift delta Tm is listed for Cc1cn(-c2cc(NC(=O)c3ccc(C)c(Nc4nccc(-c5cccnc5)n4)c3)cc(C(F)(F)F)c2)cn1 ?
Result string: 0.55 °C

Query string: What value of measured thermal shift delta Tm is listed for CC1=C(C(=O)Nc2cc3cn[nH]c3cc2F)C(c2ccc(C(F)(F)F)cc2)CC(=O)N1 (stereo not drawn) ?
Result string: 0.55 °C

Please supply thermal shift delta Tm for each of the following items, keeping them in order.
1. COc1cc2ncnc(Nc3ccc(F)c(Cl)c3)c2cc1NC(=O)/C=C/CN1CCCCC1
2. S=C(NCc1ccc2c(c1)OCO2)N1CCN(c2ncnc3c2oc2ccccc23)CC1
3. O=C(NOCC(O)CO)c1cc(Br)c(F)c(F)c1Nc1ccc(I)cc1F (stereo not drawn)

Result string:
1.7 °C
1.09 °C
1.08 °C

----------
Tested on: LOC_OS01G60700-cb002
Experiment: thermal shift delta Tm vs DMSO control; higher = stronger stabilization (binding)
Details: 12.5 µM; protein concentration 2 µM
Record form. Attribute: thermal shift delta Tm. Fill in for each entry.
One number for each entry, in °C.

As a guide, the following entries are already answered.
Query string: What value of measured thermal shift delta Tm is listed for O=C(O)c1ccc2c3c1cccc3c(=O)n1c3ccccc3nc21 ?
Result string: 1

Query string: What value of measured thermal shift delta Tm is listed for Cc1ncc(CO)c(CO)c1O ?
Result string: -0.29

Query string: What value of measured thermal shift delta Tm is listed for COc1cc(N2CCC(N3CCN(C)CC3)CC2)ccc1Nc1ncnc(Nc2ccccc2S(=O)(=O)C(C)C)n1 ?
Result string: 0.92

Query string: What value of measured thermal shift delta Tm is listed for CCn1c(=O)c(-c2ccc(-c3cncs3)cc2Cl)cc2cnc(Nc3ccc(N4CCN(C)CC4)cc3)nc21 ?
Result string: 0.86

Would you kindly look at the next entry?
Query string: What value of measured thermal shift delta Tm is listed for S=C(NCc1ccc2c(c1)OCO2)N1CCN(c2ncnc3c2oc2ccccc23)CC1 ?
Result string: 1.01

----------
Tested on: LOC_OS01G67340-cb003
Assay: thermal shift delta Tm vs DMSO control; higher = stronger stabilization (binding)
Details: 12.5 µM; protein concentration 2 µM
observable: thermal shift delta Tm

Query string: What value of measured thermal shift delta Tm is listed for O=C1CCc2c(Oc3ccc4c(c3)[C@@H]3[C@H](O4)[C@H]3c3nc4cc(C(F)(F)F)ccc4[nH]3)ccnc2N1 ?
Result string: 1.66 °C

Please supply thermal shift delta Tm for each of the following items, keeping them in order.
1. N#CC[C@H](C1CCCC1)n1cc(-c2ncnc3[nH]ccc23)cn1
2. O=C1NC(=O)[C@@H](c2cn3c4c(cccc24)CCC3)[C@@H]1c1c[nH]c2ccccc12 [Tivantinib (ARQ 197)]
3. CCN1CCN(Cc2ccc(Nc3ncc(F)c(-c4cc(F)c5nc(C)n(C(C)C)c5c4)n3)nc2)CC1

Result string:
1: 0.07 °C; 2: 0.37 °C; 3: 0.39 °C

----------
System: LOC_OS05G16824-cb004
Assay: thermal shift delta Tm vs DMSO control; higher = stronger stabilization (binding)
Conditions: 12.5 µM; protein concentration 2 µM
# binarize thermal shift delta Tm: threshold 1 °C inclusive, high side true (1), low side false (0)

Previously resolved entries follow.
Query string: Could you verify whether the entry COc1cc(C(=O)N2CCC(N3CCN(C)CC3)CC2)ccc1Nc1ncc2c(n1)N(C)c1ccccc1C(=O)N2C shows thermal shift delta Tm of no less than 1 °C?
Result string: false (0)

Query string: Could you verify whether the entry Nc1nc2cc(-c3ccc4ncc(C(=O)N5CCOCC5)n4c3)ccc2o1 shows thermal shift delta Tm of no less than 1 °C?
Result string: true (1)

Query string: Could you verify whether the entry C[C@@H](Oc1cc(-c2cnn(C3CCNCC3)c2)cnc1N)c1c(Cl)ccc(F)c1Cl shows thermal shift delta Tm of no less than 1 °C?
Result string: true (1)

Query string: Could you verify whether the entry N#Cc1ccc2[nH]c(O)c(-c3ccc(CN4CCOCC4)cn3)c2c1 shows thermal shift delta Tm of no less than 1 °C?
Result string: true (1)

Query string: Could you verify whether the entry COc1cc2c(Nc3ccc(NC(=O)c4ccccc4)cc3)ncnc2cc1OCCCN1CCOCC1 shows thermal shift delta Tm of no less than 1 °C?
Result string: true (1)

New cases:
Query string: Could you verify whether the entry CS(=O)(=O)c1ccc(-c2cnc(N)c(C(=O)Nc3ccccc3)n2)cc1 shows thermal shift delta Tm of no less than 1 °C?
Result string: false (0)

Query string: Could you verify whether the entry CC(C)(C)c1cc(NC(=O)Nc2ccc(Oc3ccnc4[nH]c(=O)cnc34)cc2F)n(-c2ccccc2)n1 shows thermal shift delta Tm of no less than 1 °C?
Result string: false (0)

Query string: Could you verify whether the entry Cc1cccc(CC(=O)N2CCc3c2ccc(-c2cn(C)c4ncnc(N)c24)c3F)n1 shows thermal shift delta Tm of no less than 1 °C?
Result string: false (0)

Query string: Could you verify whether the entry CS(=O)(=O)N1CCN(Cc2cc3nc(-c4cccc5[nH]ncc45)nc(N4CCOCC4)c3s2)CC1 shows thermal shift delta Tm of no less than 1 °C?
Result string: false (0)
